biological target: mGluR5 receptors (Rattus norvegicus); construct: endogenous in cells; assay: Cytosolic calcium studies with astrocytes (astrocyte culture test, FLIPR); conditions: rat primary astrocytes; L-quisqualate (100 nM); read-out: mGluR5_FLIPRr_rpA IC50
Sequence (P31424 21-1203): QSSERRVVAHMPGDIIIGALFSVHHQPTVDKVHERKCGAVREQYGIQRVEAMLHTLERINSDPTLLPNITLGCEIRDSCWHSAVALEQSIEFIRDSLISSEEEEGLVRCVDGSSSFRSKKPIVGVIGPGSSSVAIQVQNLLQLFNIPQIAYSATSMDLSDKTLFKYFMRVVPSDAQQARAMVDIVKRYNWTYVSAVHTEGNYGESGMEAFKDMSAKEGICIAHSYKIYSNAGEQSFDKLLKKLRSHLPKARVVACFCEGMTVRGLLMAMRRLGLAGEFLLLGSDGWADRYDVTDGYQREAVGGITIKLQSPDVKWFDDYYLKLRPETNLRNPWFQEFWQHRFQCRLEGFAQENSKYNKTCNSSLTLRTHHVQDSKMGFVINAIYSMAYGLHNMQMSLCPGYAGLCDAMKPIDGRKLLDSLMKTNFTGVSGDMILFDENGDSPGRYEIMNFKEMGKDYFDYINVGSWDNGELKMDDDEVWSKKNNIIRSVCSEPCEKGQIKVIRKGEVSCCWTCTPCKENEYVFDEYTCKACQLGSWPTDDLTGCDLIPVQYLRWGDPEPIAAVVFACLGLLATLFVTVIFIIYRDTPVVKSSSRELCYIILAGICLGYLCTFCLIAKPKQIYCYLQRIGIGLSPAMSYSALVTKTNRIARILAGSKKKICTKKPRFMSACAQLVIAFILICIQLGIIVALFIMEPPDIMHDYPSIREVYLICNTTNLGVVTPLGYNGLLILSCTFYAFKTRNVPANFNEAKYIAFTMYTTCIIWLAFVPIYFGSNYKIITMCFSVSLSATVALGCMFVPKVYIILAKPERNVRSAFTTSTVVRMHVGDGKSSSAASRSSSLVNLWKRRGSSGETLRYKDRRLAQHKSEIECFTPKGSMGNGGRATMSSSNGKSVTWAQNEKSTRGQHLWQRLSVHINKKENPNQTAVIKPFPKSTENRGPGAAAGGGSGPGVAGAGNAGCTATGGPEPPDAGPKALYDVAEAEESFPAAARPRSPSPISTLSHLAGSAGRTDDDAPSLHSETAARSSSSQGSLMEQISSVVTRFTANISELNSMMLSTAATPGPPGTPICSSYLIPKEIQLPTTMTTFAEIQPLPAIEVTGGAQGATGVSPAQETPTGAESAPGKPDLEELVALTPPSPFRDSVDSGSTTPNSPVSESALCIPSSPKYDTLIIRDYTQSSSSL
Measured quantity: IC50 (µM)

Solved cases (2 shown):
(Q) Request - read-out IC50 | tested on mGluR5 receptors (Rattus norvegicus) | compound COc1ccc2c(c1)CCN(C(=O)c1cc3ncc(Cl)cn3n1)C2C (centres unmarked) [drawing 450]
(A) 0.069

(Q) Request - read-out IC50 | tested on mGluR5 receptors (Rattus norvegicus) | compound COc1cc2c(cc1O)CCN(C(=O)c1cc3ncc(Br)cn3n1)C2C (centres unmarked) [drawing 443]
(A) 0.043

[1] O=C(c1cc2ncc(Cl)cn2n1)N1CCc2ncc(Br)cc2C1 [drawing 452]
[2] CC1CN(C(=O)c2cc3ncc(Br)cn3n2)C(C)c2ccccc21 (centres unmarked) [drawing 448]
[3] CC1c2cccc(F)c2CCN1C(=O)c1cc2ncc(Br)cn2n1 (centres unmarked) [drawing 445]
(Q) Descending sort on IC50 required. The labels, placed in the requested order, form the answer.
(A) 2, 1, 3
